- TARGET_UNDER_TEST: Histone-lysine N-methyltransferase NSD2 (Homo sapiens, UniProt O96028)
- Sequence (O96028 whole entry): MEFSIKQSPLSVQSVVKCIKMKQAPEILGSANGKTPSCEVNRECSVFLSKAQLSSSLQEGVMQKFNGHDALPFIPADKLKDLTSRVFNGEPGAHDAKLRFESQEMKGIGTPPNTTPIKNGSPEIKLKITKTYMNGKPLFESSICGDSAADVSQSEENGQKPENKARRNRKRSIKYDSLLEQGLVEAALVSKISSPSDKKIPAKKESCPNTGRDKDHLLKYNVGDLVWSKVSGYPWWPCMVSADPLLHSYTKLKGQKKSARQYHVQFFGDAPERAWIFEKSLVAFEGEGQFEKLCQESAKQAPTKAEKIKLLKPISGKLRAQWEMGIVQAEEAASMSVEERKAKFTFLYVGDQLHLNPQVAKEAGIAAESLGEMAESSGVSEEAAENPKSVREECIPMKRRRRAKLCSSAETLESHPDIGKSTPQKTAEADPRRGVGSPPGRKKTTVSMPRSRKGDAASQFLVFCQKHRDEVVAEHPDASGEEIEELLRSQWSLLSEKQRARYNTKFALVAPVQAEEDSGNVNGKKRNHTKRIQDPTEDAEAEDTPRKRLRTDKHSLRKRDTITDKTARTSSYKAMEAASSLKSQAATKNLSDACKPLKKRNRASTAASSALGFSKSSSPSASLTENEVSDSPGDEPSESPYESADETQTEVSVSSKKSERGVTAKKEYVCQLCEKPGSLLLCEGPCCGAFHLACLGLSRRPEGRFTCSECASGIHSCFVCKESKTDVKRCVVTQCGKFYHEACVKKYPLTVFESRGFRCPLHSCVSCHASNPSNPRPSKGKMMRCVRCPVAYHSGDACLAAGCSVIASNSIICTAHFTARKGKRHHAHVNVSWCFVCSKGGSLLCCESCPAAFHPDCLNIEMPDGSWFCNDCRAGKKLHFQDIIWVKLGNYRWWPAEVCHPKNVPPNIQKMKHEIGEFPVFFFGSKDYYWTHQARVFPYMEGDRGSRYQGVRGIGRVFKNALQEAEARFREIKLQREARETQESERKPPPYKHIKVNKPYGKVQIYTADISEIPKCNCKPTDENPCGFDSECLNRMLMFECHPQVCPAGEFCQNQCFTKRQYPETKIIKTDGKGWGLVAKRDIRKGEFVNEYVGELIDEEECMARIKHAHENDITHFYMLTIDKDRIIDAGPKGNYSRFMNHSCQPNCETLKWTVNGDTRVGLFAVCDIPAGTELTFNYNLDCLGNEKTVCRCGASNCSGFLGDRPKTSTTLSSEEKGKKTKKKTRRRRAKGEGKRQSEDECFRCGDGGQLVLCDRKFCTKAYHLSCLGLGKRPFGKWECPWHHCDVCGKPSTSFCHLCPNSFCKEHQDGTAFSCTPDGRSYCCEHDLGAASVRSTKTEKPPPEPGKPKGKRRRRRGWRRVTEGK
- Type: biochemical
Active and inactive are the calls of the source.
READOUT_KIND: AC50

The cases that follow already have their AC50 on record.
Cc1c(Br)c(=O)oc2c(Br)c(O)c(O)cc12	10.3 µM (active)
Cc1c(CN(C)C)c2c(n1Cc1ccccc1)C(=O)c1ccccc1-2	8.45 µM (active)

Record summary for COC(=O)C1CCN(C2=C(NS(=O)(=O)c3ccc(Cl)cc3)C(=O)c3ccccc3C2=O)CC1 : reported AC50 = 13.1 µM (active)

The compound identified as Cc1ccc(NC(=O)CC2=NC(=O)C(CC(=O)Nc3ccccc3F)S2)cc1 (stereo not given) registered its AC50 at 19.1 µM (active)

Entry under test: CN(CC(=O)Nc1ccccc1Cl)C(=O)COC(=O)c1ccc([N+](=O)[O-])s1 . Its AC50 was 8.27 µM (active)

###

- TARGET_UNDER_TEST: Nonstructural protein 1 (Influenza A virus, UniProt Q194T2)
- Sequence (Q194T2 whole entry): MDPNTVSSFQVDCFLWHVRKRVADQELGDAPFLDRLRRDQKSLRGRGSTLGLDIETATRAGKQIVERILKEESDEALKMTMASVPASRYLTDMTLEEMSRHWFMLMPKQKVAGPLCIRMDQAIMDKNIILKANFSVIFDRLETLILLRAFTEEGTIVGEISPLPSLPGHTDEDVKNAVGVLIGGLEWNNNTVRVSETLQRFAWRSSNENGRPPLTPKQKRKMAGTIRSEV
- Assay type: functional, Influenza A virus (A/California/07/2009(H1N1))
Active and inactive are the calls of the source.
READOUT_KIND: IC50

Cc1nnc2sc(SCC(=O)Nc3cccc(Cl)c3)nn2c1=O	10.4 µM (active)
Cc1[nH]n(-c2ccccc2)c(=O)c1N=Nc1c(O)cc(S(=O)(=O)N(C)C)c2ccccc12	19.8 µM (active)
O=C(Nc1nc(NC(=O)c2ccco2)n(-c2ccccc2)n1)c1ccccc1	85.9 µM (active)

# context switch: different compound, same IC50
// recorded IC50 for O=[N+]([O-])c1ccccc1N/N=C/c1c[nH]c2ccccc12 : 19 µM (active)

###

- TARGET_UNDER_TEST: Caspase-6 (Homo sapiens)
- Sequence (P55212 whole entry): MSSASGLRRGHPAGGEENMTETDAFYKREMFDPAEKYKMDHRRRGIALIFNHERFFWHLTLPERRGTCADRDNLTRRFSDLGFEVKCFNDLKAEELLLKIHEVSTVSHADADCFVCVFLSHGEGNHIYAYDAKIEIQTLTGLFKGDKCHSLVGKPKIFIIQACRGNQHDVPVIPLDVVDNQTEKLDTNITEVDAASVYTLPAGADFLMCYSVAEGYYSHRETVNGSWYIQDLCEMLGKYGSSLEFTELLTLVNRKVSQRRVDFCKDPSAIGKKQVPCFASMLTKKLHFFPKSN
- ASSAY_COMMENT: human caspase-6 inhibitors, dose response, biochemical, VEID-R110 fluorescence, cherry-pick (AID 720632)
Activity calls are given as the source filed them.
READOUT_KIND: AC50

COC(=O)N/N=C1/C/C(=N\NC(=O)OC)c2ccccc21	4.22 µM (active)
O=c1c2ccccc2[nH]c2ccc(O)cc12	17.7 µM (active)
Cc1c(Br)c(=O)oc2c(Br)c(O)c(O)cc12	19.5 µM (active)

Let's switch to this molecule now.
Documented AC50 of O=C1Cc2ccccc2C(=O)N1c1cccc(Cl)c1 : 35.6 µM (active)

###

- TARGET_UNDER_TEST: Polyadenylate-binding protein 1 (Homo sapiens)
- Sequence (P11940 whole entry): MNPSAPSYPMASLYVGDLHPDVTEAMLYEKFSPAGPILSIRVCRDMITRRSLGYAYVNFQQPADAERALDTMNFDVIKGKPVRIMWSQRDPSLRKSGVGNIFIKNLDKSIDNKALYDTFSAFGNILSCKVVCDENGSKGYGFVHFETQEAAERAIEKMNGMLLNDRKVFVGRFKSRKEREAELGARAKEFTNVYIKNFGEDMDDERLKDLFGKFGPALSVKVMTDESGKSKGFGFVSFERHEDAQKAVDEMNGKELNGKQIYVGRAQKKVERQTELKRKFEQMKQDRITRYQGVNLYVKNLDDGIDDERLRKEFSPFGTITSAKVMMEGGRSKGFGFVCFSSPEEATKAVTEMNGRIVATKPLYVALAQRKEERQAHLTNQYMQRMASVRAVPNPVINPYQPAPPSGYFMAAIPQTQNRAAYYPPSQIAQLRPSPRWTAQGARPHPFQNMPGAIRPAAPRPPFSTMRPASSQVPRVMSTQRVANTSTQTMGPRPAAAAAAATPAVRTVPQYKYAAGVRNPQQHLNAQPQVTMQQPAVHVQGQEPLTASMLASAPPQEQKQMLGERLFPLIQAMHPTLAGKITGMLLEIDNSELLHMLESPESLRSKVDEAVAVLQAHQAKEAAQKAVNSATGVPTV
- ASSAY_COMMENT: PABP1 MLLE–PAM2 binding inhibitor potency, dose response, biochemical, fluorescence polarization, FITC-PAM2 peptide (AID 602259)
- Format: functional
- TEST_SETTINGS: read-out: IC50_Mean
Calls of active or inactive are those of the source.
Just give me one of these, please: 1 = active, 0 = inactive

CCCN(CCC)C(=S)NC(=O)c1ccc(-c2ccccc2)cc1	0
COC(=O)c1ccc2c(=O)sc(N3CCC(C(N)=O)CC3)nc2c1	0
Cc1ccccc1NC(=N)Nc1ccccc1C	1

Next, consider the following molecule.
Asked: Fill in: this test's call for O=C1N=C2SCCN2/C1=C\c1ccccc1Cl is ___
Given back: 0
